parameter: melting point

>>> recorded_result("CCNC(=O)c1ccc2c(c1)Nc1nccnc1S2")
"274 to 275 °C"
>>> recorded_result("CCOC(=O)/C=C/c1ccc2c(c1)Nc1nccnc1N2C")
"190 to 191 °C"
>>> recorded_result("O=C(O)C1CC2(CCN(Cc3ccc4c(c3)Nc3nccnc3S4)CC2)O1 (centres unmarked)")
"178 to 180 °C"
>>> recorded_result("O=C(O)C1C2CCCC1CN(Cc1ccc3c(c1)Nc1nccnc1S3)C2 (centres unmarked)")
"272 to 275 °C"
>>> recorded_result("CN1c2cc(O)ccc2Nc2nccnc21")
"> 275 °C"

# input for lookup
input: Please look up its melting point: OCCCc1ncnc2c1ncn2Cc1ccc2c(c1)Nc1nccnc1S2
output: 174 to 177 °C

###

parameter: melting point

// below: answered compounds
>>> recorded_result("Cc1nc2c(nc(C)n2Cc2ccc3c(c2)Nc2nccnc2S3)c(=O)[nH]1")
"206 to 211 °C"
>>> recorded_result("c1cnc2c(c1)ncn2Cc1ccc2c(c1)Nc1nccnc1S2")
"249 to 251 °C"
>>> recorded_result("CONC(Cc1ccc2c(c1)Nc1nccnc1S2)=NC#N")
"172 to 174 °C"
>>> recorded_result("CC(C)(O)c1ncnc2c1ncn2Cc1ccc2c(c1)Nc1nccnc1O2")
"143 to 145 °C"
>>> recorded_result("O=C(O)CSc1ccc(NCc2ccc3c(c2)Nc2nccnc2S3)cn1")
"114 to 116 °C"

input: I would be grateful if you could share the reported melting point for CN(C)c1ncnc2c1ncn2Cc1ccc2c(c1)Nc1nccnc1S2 .
output: 229 to 233 °C

input: Which melting point value is on record for CCOC(=O)CCCCCOc1ccc(NCc2ccc3c(c2)Nc2nccnc2S3)cn1 ?
output: 105 to 108 °C

input: Quick one: melting point of O=C(O)COC1CCN(Cc2ccc3c(c2)Nc2nccnc2S3)CC1 ?
output: 204 to 207 °C

input: Returns the measured melting point for the input compound. Input: O=C(O)CSc1ccc(C(O)c2ccc3c(c2)Nc2nccnc2S3)cn1 (centres unmarked)
output: 65 to 70 °C

input: Need melting point of CN1c2cc(C#N)ccc2Nc2nccnc21 , thanks.
output: > 275 °C

input: Fill in the blank: the reported melting point of Cl.N=C(Cc1ccc2c(c1)Nc1nccnc1S2)Nc1ccccc1 is ____.
output: 245 to 249 °C (dec.)

###

parameter: melting point

>>> recorded_result("FC(F)(F)c1cnc(NCc2ccc3c(c2)Nc2nccnc2S3)c(Cl)c1")
"158 to 161 °C"
>>> recorded_result("c1cnc2c(n1)Nc1cc(Cn3cnc4ncncc43)ccc1S2")
"277 to 280 °C"
>>> recorded_result("C=CCN1c2ccccc2Nc2nccnc21")
"173 to 175 °C"

input: Please give the measured melting point for this molecule: CC(C(=O)O)C1CC2(CCN(Cc3ccc4c(c3)Nc3nccnc3S4)CC2)C1 (centres unmarked)
output: 169 to 172 °C

input: Report melting point for O=C(O)/C=C1/CCCN(Cc2ccc3c(c2)Nc2nccnc2S3)C1 please.
output: 216 to 220 °C

input: For the molecule shown here, OC1C2CCCC1CN(Cc1ccc3c(c1)Nc1nccnc1S3)C2 (centres unmarked) [Example 126] , give the reported melting point.
output: 215 to 219 °C

input: Endpoint output: melting point of CNS(=O)(=O)N1CCN(Cc2ccc3c(c2)Nc2nccnc2S3)CC1 . Value?
output: 208 to 210 °C

input: Quick one: melting point of N#Cc1ccc2c(c1)Nc1nccnc1N2 ?
output: > 275 °C

input: Need melting point of CCc1ccc(C(O)c2ccc3c(c2)Nc2nccnc2S3)cn1 (centres unmarked) , thanks.
output: 161 to 163 °C

input: Fill blank: measured melting point of the molecule O=C(O)CC1C2CCCCC1CN(Cc1ccc3c(c1)Nc1nccnc1S3)C2 (centres unmarked) is ____.
output: 217 to 218 °C

input: Which melting point value is on record for O=C(O)C1CCN(c2ncnc3c2ncn3Cc2ccc3c(c2)Nc2nccnc2S3)CC1 ?
output: 238 to 240 °C

Where do these numbers come from? They come from patent US6518423B1.
